Kindly state Ki for each of the entries shown.
molecular target: Synaptic vesicular amine transporter (Bos taurus, UniProt Q27963); assay: Inhibition of dopamine uptake at VMAT in bovine chromaffin granule ghosts
Sequence (Q27963 whole entry): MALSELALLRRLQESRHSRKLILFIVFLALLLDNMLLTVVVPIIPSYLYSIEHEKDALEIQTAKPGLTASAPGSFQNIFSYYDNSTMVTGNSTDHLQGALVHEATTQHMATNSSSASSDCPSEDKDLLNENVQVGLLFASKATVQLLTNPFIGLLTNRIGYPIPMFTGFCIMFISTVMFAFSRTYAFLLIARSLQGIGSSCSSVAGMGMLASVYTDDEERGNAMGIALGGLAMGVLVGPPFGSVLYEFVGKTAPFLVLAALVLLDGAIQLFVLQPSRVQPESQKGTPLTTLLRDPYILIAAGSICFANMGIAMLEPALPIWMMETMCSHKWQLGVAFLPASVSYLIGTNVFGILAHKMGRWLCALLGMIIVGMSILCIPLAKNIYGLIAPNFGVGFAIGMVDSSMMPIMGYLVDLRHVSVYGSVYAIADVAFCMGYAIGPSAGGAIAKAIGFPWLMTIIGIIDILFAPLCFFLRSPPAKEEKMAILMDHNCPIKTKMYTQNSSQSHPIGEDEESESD
Give bare numbers, in µM.

> print(dat)
                                        smi                               system.name  recorded.endpoint  unit.symbol  obs.value
1  COc1ccc2c3c([nH]c2c1)[C@H]1C[C@H]2[C@H](C[C@@H](O)[C@H](OC)[C@H]2C(=O)O)CN1CC3  Synaptic vesicular amine transporter (Bos taurus, UniProt Q27963)                 Ki           µM         10

Look up Ki for the entries below, preserving their order.
1. C[n+]1ccc(-c2ccc(O)cc2)cc1
2. C=C(C[n+]1ccc(-c2cccc(O)c2)cc1)c1ccc(I)cc1
3. Cc1ccccc1C1=CCN(C)CC1

82
0.4
38.4

Reference for the values: ChEMBL document CHEMBL1143247
